Reported inhibition at 10 µM values for the following compounds.
System: A549 (lung adenocarcinoma)
protocolDescription: Antiproliferative activity (CCK-8 cell viability), A549
Type: cell-based
studyConditions: Homo sapiens, Compound concentration: 10 μM, 72 h, read-out: Antiproliferative activity in cancerous cells, A549 (inhibition of cell growth)

# chemSmiles, studySystem, inhibition at 10 µM
data = [
    ("CC1=C(CC(=O)O)c2cc(F)ccc2/C1=C\\c1ccc(CN(Cc2ccccn2)c2ccccc2)cc1", "A549 (lung adenocarcinoma)", "≥ 50%"),
    ("CC1=C(CC(=O)O)c2cc(F)ccc2/C1=C\\c1ccc(Oc2ccc(Cl)cc2)cc1C", "A549 (lung adenocarcinoma)", "≥ 50%"),
    ("CC1=C(CC(=O)O)c2ccc(Cl)cc2/C1=C\\c1ccc(Oc2ccc(F)cc2)cc1", "A549 (lung adenocarcinoma)", "≥ 50%"),
    ("CC1=C(CC(=O)O)c2cc(Br)ccc2/C1=C\\c1ccc(Oc2ccc(F)cc2)cc1", "A549 (lung adenocarcinoma)", "< 30%"),
    ("CC1=C(CC(=O)O)c2cc(F)ccc2/C1=C/c1cccc(COc2ccc(F)cc2F)c1", "A549 (lung adenocarcinoma)", "< 30%"),
    ("COc1ccc2c(c1)/C(=C\\c1cccc(COc3ccccc3)c1)C(C)=C2CC(=O)O", "A549 (lung adenocarcinoma)", "≥ 50%"),
    ("CC1=C(CC(=O)O)c2cc(Cl)c(Cl)cc2/C1=C\\c1ccc(Oc2ccc(F)cc2)cc1", "A549 (lung adenocarcinoma)", "≥ 50%"),
    ("CC1=C(CC(=O)O)c2cc(F)ccc2/C1=C\\c1cccc(CSc2ccc(F)cc2)c1", "A549 (lung adenocarcinoma)", "30 to 50%"),
    ("CC1=C(CC(=O)O)c2cc(F)c(F)cc2/C1=C\\c1ccc(COc2ccc(F)cc2)cc1", "A549 (lung adenocarcinoma)", "30 to 50%"),
]

* * *

Reported inhibition at 10 µM values for the following molecules.
System: A549 (lung adenocarcinoma)
protocolDescription: Antiproliferative activity (CCK-8 cell viability), A549
Format: cell-based
studyConditions: Homo sapiens, Compound concentration: 10 μM, 72 h, read-out: Antiproliferative activity in cancerous cells, A549 (inhibition of cell growth)
measureName: inhibition at 10 µM

# molecule, valueReported
records = [
    ("CC1=C(CC(=O)O)c2cc(F)ccc2/C1=C\\c1ccc(Cc2cc3ccccc3o2)cc1", "< 30%"),
    ("CCc1ccc2c(c1)C(CC(=O)O)=C(C)/C2=C/c1ccc(COc2ccc(C(F)(F)F)cc2)cc1", "≥ 50%"),
    ("CC1=C(CC(=O)O)c2cc(F)cc(F)c2/C1=C\\c1cccc(COc2ccccc2)c1", "30 to 50%"),
    ("COc1ccc2c(c1)/C(=C\\c1ccc(Oc3ccc(F)cc3)cc1)C(Cc1ccccc1)=C2CC(=O)O", "≥ 50%"),
    ("CC1=C(CC(=O)O)c2cc(F)ccc2/C1=C\\c1ccc(CCCc2ccc(O)cc2)cc1", "≥ 50%"),
    ("CC1=C(CC(=O)O)c2cc(F)ccc2/C1=C\\c1ccc(COCc2ccccc2)cc1", "30 to 50%"),
    ("CC1=C(CC(=O)O)c2cc(F)ccc2/C1=C\\c1ccc(Oc2ccc(F)c(Cl)c2)cc1", "< 30%"),
    ("CC1=C(CC(=O)O)c2cc(F)ccc2/C1=C\\c1ccc(COc2ccc(C(F)(F)F)cc2)cc1", "≥ 50%"),
    ("CC1=C(CC(=O)N2CCN(CCO)CC2)c2cc(F)ccc2/C1=C\\c1ccc(Oc2ccc(F)cc2)cc1", "< 30%"),
    ("CC1=C(CC(=O)O)c2cc(F)ccc2/C1=C\\c1cccc(Oc2cccc(Cl)c2)c1", "< 30%"),
    ("CC1=C(CC(=O)O)c2cc(F)ccc2/C1=C\\c1ccc(COCc2ccc(C(F)F)cc2)cc1", "≥ 50%"),
    ("COc1ccc(COCc2ccc(/C=C3/C(C)=C(CC(=O)O)c4cc(F)ccc43)cc2)cc1Cl", "≥ 50%"),
    ("CC1=C(CC(=O)O)c2cc(F)ccc2/C1=C\\c1cccc(C[S+]([O-])c2ccc(F)cc2)c1 (stereo not shown)", "< 30%"),
    ("CC1=C(CC(=O)O)c2cc(F)ccc2/C1=C\\c1ccc(COCc2ccc(F)cc2)cc1", "≥ 50%"),
    ("CC1=C(CC(=O)O)c2cc(F)ccc2/C1=C\\c1cccc(-c2ccc(C(F)(F)F)cc2)c1 [D1]", "≥ 50%"),
    ("CC1=C(CC(=O)O)c2cc(F)ccc2/C1=C\\c1ccc(COc2ccc(Cl)cc2)cc1Br", "≥ 50%"),
    ("CCc1ccc2c(c1)C(CC(=O)O)=C(C)/C2=C/c1cccc(COc2ccc(F)cc2)c1", "≥ 50%"),
    ("CC1=C(CC(=O)O)c2cc(F)ccc2/C1=C/c1ccc(Oc2ccc(Cl)cc2F)cc1", "30 to 50%"),
    ("O=C(O)CC1=C(Cc2ccc(C(F)(F)F)cc2)/C(=C/c2ccc(Oc3ccc(F)cc3)cc2)c2ccc(F)cc21", "≥ 50%"),
    ("CC1=C(CC(=O)O)c2cc(F)ccc2/C1=C\\c1ccc(Oc2ccc(Cl)c(F)c2)cc1", "< 30%"),
    ("CC1=C(CC(=O)O)c2cc(F)ccc2/C1=C\\c1ccc(CN(CCc2ccccc2)c2ccccc2)cc1", "≥ 50%"),
    ("CCc1ccc2c(c1)C(CC(=O)O)=C(C)/C2=C/c1ccc(COc2ccccc2)cc1", "≥ 50%"),
    ("CC1=C(CC(=O)NCCN(C)C)c2cc(F)ccc2/C1=C\\c1ccc(Oc2ccc(F)cc2)cc1", "≥ 50%"),
    ("CC1=C(Cc2noc(=O)[nH]2)c2cc(F)ccc2/C1=C\\c1cccc(Oc2ccccc2)c1", "< 30%"),
    ("CC1=C(CC(=O)O)c2cc(F)ccc2/C1=C\\c1ccc(CCCc2ccccc2)cc1", "≥ 50%"),
    ("CC1=C(CC(=O)O)c2cc(F)ccc2/C1=C\\c1ccc(OCc2cc3ccccc3s2)cc1", "≥ 50%"),
    ("O=C(O)CC1=C(Cc2ccc(F)cc2)/C(=C/c2ccc(Oc3ccc(F)cc3)cc2)c2ccc(F)cc21", "≥ 50%"),
    ("CC1=C(CC(=O)O)c2cc(Cl)ccc2/C1=C\\c1cccc(Oc2ccc(O)cc2)c1", "≥ 50%"),
    ("CC1=C(CC(=O)O)c2cc(Cl)ccc2/C1=C/c1ccc(Oc2ccc(F)cc2)cc1", "30 to 50%"),
    ("CC1=C(CC(=O)O)c2c(Cl)cc(Cl)cc2/C1=C/c1ccc(Oc2ccc(F)cc2)cc1", "≥ 50%"),
    ("CCc1ccc2c(c1)C(CC(=O)O)=C(C)/C2=C/c1ccc(COc2ccc(Cl)cc2)cc1", "≥ 50%"),
    ("CC1=C(CC(=O)O)c2cc(F)ccc2/C1=C\\c1ccccc1OCc1ccccc1", "≥ 50%"),
    ("CC1=C(CC(=O)O)c2cc(Cl)ccc2/C1=C/c1ccc(Oc2ccc(C(C)C)cc2)cc1", "≥ 50%"),
    ("CC1=C(CC(=O)O)c2cc(F)ccc2/C1=C\\c1ccc(CCc2ccc(F)cc2)cc1", "< 30%"),
]

* * *

Test system: A549 (lung adenocarcinoma)
protocolDescription: Antiproliferative activity (CCK-8 cell viability), A549
Type: cell-based
studyConditions: Homo sapiens, Compound concentration: 10 μM, 72 h, read-out: Antiproliferative activity in cancerous cells, A549 (inhibition of cell growth)
measureName: inhibition at 10 µM

# compound, valueReported
rows = [
    ("CCc1ccc2c(c1)C(CC(=O)O)=C(C)/C2=C/c1cccc(Oc2ccc(C(F)(F)F)cc2)c1", "≥ 50%"),
    ("CC1=C(CCOC(=O)n2ccnc2)c2cc(F)ccc2/C1=C\\c1ccc(Oc2ccc(F)cc2)cc1", "< 30%"),
    ("CC1=C(CC(=O)O)c2cc(F)ccc2/C1=C\\c1ccc(S(=O)(=O)c2ccc(F)cc2)cc1", "30 to 50%"),
    ("CC1=C(CC(=O)O)c2cc(F)ccc2/C1=C\\c1cccc(Oc2ccc(F)c(F)c2)c1", "< 30%"),
    ("COc1ccc2c(c1)/C(=C\\c1ccc(OCc3ccccc3)cc1)C=C2CC(=O)O", "≥ 50%"),
    ("C=CC1=C(CC(=O)O)c2ccccc2/C1=C\\c1ccc(Oc2ccc(F)cc2)cc1", "30 to 50%"),
    ("COc1cc(Oc2ccc(Cl)cc2)ccc1/C=C1/C(C)=C(CC(=O)O)c2cc(F)ccc21", "≥ 50%"),
    ("CCCC1=C(CC(=O)O)c2cc(F)ccc2/C1=C\\c1cccc(Oc2ccccc2)c1", "≥ 50%"),
    ("CC1=C(CC(=O)O)c2cc(Cl)ccc2/C1=C\\c1cccc(Oc2ccc(C#N)cc2)c1", "≥ 50%"),
    ("CC1=C(CC(=O)O)c2cc(F)ccc2/C1=C\\c1ccc(COCc2ccc(C(C)C)cc2)cc1", "≥ 50%"),
    ("CC1=C(CC(=O)O)c2cc(F)ccc2/C1=C\\c1ccc(COc2ccc(F)cc2)cc1Br", "30 to 50%"),
    ("CC1=C(CC(=O)O)c2cc(F)ccc2/C1=C\\c1ccc(Oc2ccc(Cl)cc2C)cc1", "< 30%"),
    ("CC1=C(CC(=O)O)c2ccc(F)cc2/C1=C\\c1cccc(COc2ccccc2)c1", "≥ 50%"),
    ("CC1=C(CC(=O)O)c2c(F)ccc(F)c2/C1=C/c1cccc(C(F)(F)F)c1", "≥ 50%"),
    ("CC1=C(CCOC(=O)N(C)N)c2cc(F)ccc2/C1=C\\c1ccc(Oc2ccc(F)cc2)cc1", "< 30%"),
    ("CC1=C(CC(=O)O)c2cc(F)ccc2/C1=C\\c1ccc(C(=O)c2ccc(F)cc2)cc1", "≥ 50%"),
    ("CC1=C(CCC(=O)O)c2ccccc2/C1=C\\c1cccc(COc2ccccc2)c1", "≥ 50%"),
    ("CC1=C(CC(=O)O)c2cc(F)ccc2/C1=C\\c1cccc(C(O)c2ccccc2)c1 (stereo not drawn)", "30 to 50%"),
]
